# Test system: K562
# ASSAY_PROCEDURE: NCI tumour cell line growth inhibition, 48 h
Active and inactive are the calls of the source. Cut-off read from the data, not from the text of the source: active = GI50 up to about 1.1 µM and inactive = higher.
QUANTITY_MEASURED: GI50

INSERT INTO results (compound, test_system, recorded_measurement) VALUES
  ('O=c1[nH]c(=O)n(C2CC(O)C(CO)O2)cc1Oc1ccccc1 (stereo not drawn)', 'K562', '> 100 µM (inactive)'),
  ('OC12c3ccccc3C1CCCCCCCCCC21OCCCO1 (stereo not drawn)', 'K562', '5.09 µM (inactive)'),
  ('CCOC(=O)Cn1c(C(F)(F)F)nc2nc(Cl)c(Cl)nc21', 'K562', '26.7 µM (inactive)');

---

Overview of reported GI50 across a group of molecules:
# System: K562
# ASSAY_PROCEDURE: NCI tumour cell line growth inhibition, 48 h
Activity calls are given as the source filed them. Cut-off read from the data, not from the text of the source: active = GI50 up to about 1.1 µM and inactive = higher.
QUANTITY_MEASURED: GI50

INSERT INTO assay_data (molecule, quantity_measured, recorded_measurement) VALUES
  ('O=S(=O)(CCC[C@H]1[C@@H](CCOCc2ccccc2)C2CCCN1O2)c1ccccc1 (some centres not stated)', 'GI50', '63.2 µM (inactive)'),
  ('FC(F)(F)c1ccccc1N1CCN(c2nc(-c3cccs3)nc3ccc(Br)cc23)CC1', 'GI50', '63.1 µM (inactive)'),
  ('COc1cccc(NC(=O)/C(CS(=O)(=O)CCC(C(C)=O)C(C)=O)=N/NC(C)(C)C)c1', 'GI50', '> 100 µM (inactive)'),
  ('NC1=CN(Cc2ccccc2)C2=N/C(=C\c3ccccc3)C(=O)N12', 'GI50', '48.8 µM (inactive)'),
  ('O=C1NC(=O)C2C(=O)NC(=O)C1C2Cc1ccco1 (configuration not stated)', 'GI50', '> 100 µM (inactive)'),
  ('C1CCN2CC34CC(CC5CCCN(C6CCCC3N6)C54)C2C1 (configuration not stated)', 'GI50', '> 100 µM (inactive)'),
  ('Cn1c(N)cc(=O)nc1N', 'GI50', '> 100 µM (inactive)'),
  ('O=C(/C(=C(/Br)I)c1ccccc1)c1ccccc1', 'GI50', '14.4 µM (inactive)'),
  ('COc1cc2oc(-c3ccc(O)cc3O)c(CC=C(C)C)c(=O)c2c(O)c1/C=C/C(C)C', 'GI50', '2.12 µM (inactive)'),
  ('CS/C(=N\S(=O)(=O)c1ccc(Cl)cc1)NCCCCN/C(=N/S(=O)(=O)c1ccc(Cl)cc1)SC', 'GI50', '> 100 µM (inactive)'),
  ('CCN(CC)CCC(=O)c1ccccc1', 'GI50', '7.45 µM (inactive)'),
  ('O=c1oc2ccccc2c(O)c1C(C/C(CCN1CCCC1)=N/O)c1ccccc1 (configuration not stated)', 'GI50', '> 31.6 µM (inactive)'),
  ('COc1ccc(C(=O)/C=C/c2ccc(Oc3cc(C(=O)/C=C/c4ccc(O)cc4)c(O)cc3OC)cc2)c(O)c1', 'GI50', '3.66 µM (inactive)'),
  ('CC1CC/C(=C\c2ccc(F)cc2)C(=O)/C1=C/c1ccc(F)cc1 (configuration not stated)', 'GI50', '3.76 µM (inactive)'),
  ('COC(=O)C(=O)CC(=O)c1cccc(OC)c1', 'GI50', '> 100 µM (inactive)'),
  ('NC(=S)Nc1nnc(-c2ccc(-c3nnc(NC(N)=S)o3)cc2)o1', 'GI50', '> 100 µM (inactive)'),
  ('COC(=O)C1=CC(O)CCC1c1ccc(OC)cc1 (configuration not stated)', 'GI50', '> 100 µM (inactive)'),
  ('CSc1ccc(/C=C2\CN(C)C/C(=C\c3ccc(SC)cc3)C2=O)cc1', 'GI50', '22.2 µM (inactive)'),
  ('CCOC(=O)C1=C(C)N(Cc2ccccc2)C(C)=C(C(=O)OCC)C1c1ccccc1O', 'GI50', '33.4 µM (inactive)'),
  ('CCOC(=O)c1cccc(/N=N/c2ncc(/C=C/C(=O)OC)[nH]2)c1', 'GI50', '20.9 µM (inactive)'),
  ('Cc1ncc(CSc2ccccc2N)c(CO)c1O', 'GI50', '> 100 µM (inactive)'),
  ('O=C(CCN1CCN(c2cccc(Cl)c2)CC1)N1CCc2c([nH]c3ccccc23)C1c1cccnc1 (configuration not stated)', 'GI50', '2.78 µM (inactive)');
